Entry source: PubChem BioAssay (NCI)

# System: MDA-MB-435 melanoma
# procedure_summary: NCI-60 one-dose screen, 48 h (100 = growth as untreated, 0 = no growth, -100 = all killed)
# assay_conditions: 10 µM unless noted
Compounds without any hit were thinned out: in the full panel of roughly 83,000, 20% have a hit.
endpoint_label: growth (%)
Form entry: value (%) — number only.

Some entries whose results are on file:
COc1ccc(CCn2cncc2-c2c[nH]c3ccccc23)cc1 ... 100
CN(C)c1ccc(Nc2c3ccccc3nc3cc(NC(=O)CCN4CCCC4)ccc23)cc1 ... -94.4
Nc1n[nH]c2cccc(C#Cc3cccc(C(=O)Nc4cc(CN5CCOCC5)cc(C(F)(F)F)c4)c3)c12 ... 23.4
COc1cc2nc(-c3ccc(Cl)cc3)cc(OCCCN3CCC(O)CC3)c2cc1OC ... -10.7

Param item = `O=C(CSc1nc2sc3c(c2c(=O)n1-c1ccc(Cl)cc1)CCCC3)Nc1nc(-c2cccc(Br)c2)cs1` ; retrieve measured growth.
97.5

* * *

# Test system: HT29 colon
# procedure_summary: NCI-60 one-dose screen, 48 h
# assay_conditions: 10 µM unless noted
Compounds without any hit were thinned out: in the full panel of roughly 83,000, 20% have a hit. The source made the active and inactive calls. Rule for the calls: active = growth percent below 10; inactive = the rest.
Output constraint: value belongs to TRUE = active, FALSE = inactive

Example entries begin here.
COc1ccc(C(C)=O)c(OC)c1 ... FALSE
CCCCCN1C=C/C(=C\C(=O)N(C)c2ccc(OC(F)(F)F)cc2)c2ccccc21 ... FALSE
CCc1c(Cl)nc(N)nc1Nc1ccc(C)c(C)c1 ... FALSE

Recorded call for `CCCNC(=O)Oc1ccc(/C(=C(\C)c2ccccc2)c2ccc(OCCCN(C)C)cc2)cc1` ?
TRUE

What about this molecule? `CN1CCN(CCNc2nccc(-c3c(-c4cccc(O)c4)nc4sccn34)n2)S1(=O)=O`
FALSE

Could you do the same for CC1=CCC(OC(=O)C(C)(O)CCC(O)(C(=O)OC2(C)C=CC(O)(C(C)C)CC2)C(C)C)(C(C)C)CC1 (stereo unspecified) , please?
FALSE

Further, for `COc1cc2nc(-c3ccc(Cl)cc3)cc(OCCCN3CCC(O)CC3)c2cc1OC` ?
FALSE

Let us now turn to CC1(C)CC(O)CCCCCCOc2c(CN)cccc2NC(=O)c2nc(cnc2N)-c2ccc(cc2)S1(=O)=O (stereo unspecified)
TRUE

Follow-up item: `Nc1c(S(=O)(=O)O)cc2c3c(cccc13)C(=O)OC2=O`
FALSE

* * *

# Test system: CAKI-1 renal
# procedure_summary: NCI-60 one-dose screen, 48 h (100 = growth as untreated, 0 = no growth, -100 = all killed)
# assay_conditions: 10 µM unless noted
Compounds without any hit were thinned out: in the full panel of roughly 83,000, 20% have a hit. Activity calls are given as the source filed them. Rule for the calls: active = growth percent below 10; inactive = the rest.
Item-by-item account of growth

CCc1c2c(nc3ccc(OCc4ccc(B(O)O)cc4)cc13)-c1cc3c(c(=O)n1C2)COC(=O)[C@]3(O)CC ... -21% (active)

For the compound shown here, `NS(=O)(=O)c1ccc(Cn2c(SCC(=O)N/N=C/c3ccccc3O)nc3ccccc3c2=O)cc1` , give the reported growth.
54.2% (inactive)

And the next one, `C=C1C(=O)O[C@H]2[C@H]1CC/C(COC(=O)NCc1c[nH]c3ccc(Cl)cc13)=C\CC[C@@]1(C)O[C@@H]21` ?
-96.4% (active)

Repeat with `O=C(Cc1ccc(/C=C/C(=O)c2nccs2)cc1)Nc1ccccc1`
99.9% (inactive)

Do the same for `Cc1ccc(S(=O)(=O)Nn2c3c(cc(-c4nc5ccccc5s4)c2=O)CCCCCC3)cc1` please
86.6% (inactive)

Another compound to look at: `O=C1NN(C(=O)c2ccccc2)C(c2ccc(Cl)c(Cl)c2)=C/C1=C\c1ccc([N+](=O)[O-])cc1`
77.1% (inactive)

Further, for `COc1cc2oc(-c3cccc(C(=O)Nc4ccc(Cl)cc4)c3)cc(=O)c2c(O)c1OC` ?
55% (inactive)

Here is the next compound: `C#CCNC(=O)[C@]1(C)CC[C@]2(C)CC[C@@H]3C(=CC[C@H]4[C@@]3(C)CC[C@H]3C(C)(C)C(=O)CC[C@]43C)[C@@H]2C1`
83.1% (inactive)

* * *

# Tested on: CCRF-CEM leukemia
# procedure_summary: NCI-60 one-dose screen, 48 h (100 = growth as untreated, 0 = no growth, -100 = all killed)
# assay_conditions: 10 µM unless noted
About 83,000 compounds went through this panel and 20% of them were active in at least one assay; those are over-represented in the sample as a whole.
param class (str): category from growth; see ranges bottom end (below 40%), midrange (40% to below 90%), top end (90% or more)

C[C@H](c1nc2ccc(N)cc2[nH]1)[C@H]1CC[C@H]2[C@@H]3CCC4=CC(=O)CC[C@]4(C)[C@H]3CC[C@]12C ... midrange

Where would `N/C(=N\C(N)=N\c1nc2ccccc2s1)c1ccnc(Br)c1` land among the classes by reported growth?
bottom end

Query `O=C(CCN1CCCC1)Nc1ccc2c(NCCc3ccccc3)c3ccccc3nc2c1` next
bottom end

Here is the next molecule: `CCCCCCNC(=O)Oc1ccc(/C(=C(\C)c2ccccc2)c2ccc(OCCCN(C)C)cc2)cc1`
midrange

How about this molecule: `O=[N+]([O-])c1cc(Br)c2cccc3c2c1CC3`
top end

Okay, and `Fc1ccc2c(-c3cncn3CCc3ccccc3)c[nH]c2c1` ?
midrange

Again, but for CC(Oc1ccc(C(=O)O)cc1C(F)(F)F)c1ccc(Oc2ccccc2)cn1 (stereo not drawn)
top end

* * *

# System: SK-MEL-28 melanoma
# procedure_summary: NCI-60 one-dose screen, 48 h (100 = growth as untreated, 0 = no growth, -100 = all killed)
# assay_conditions: 10 µM unless noted
This is part of a sample that, as a whole, favours compounds with a hit. Of some 83,000 tested, about 20% had one in any assay.
endpoint_label: growth (%)
Give the value in % but do not write % after it.

Field: example entries. Status: answers known.
NC(=NCc1ccccc1)C(N=Nc1ccccc1)C(=O)NCc1ccccc1 (configuration not stated) ... 106
N=C(N)c1ccc(OCCCCCCCCCCOc2ccc(C(=N)N)cc2)cc1 ... -93.9

For `N/C(=N\C(N)=N\c1nc2ccccc2s1)c1cnccn1` , what is its reported growth?
21.6

Same thing, different molecule: O=C(c1ccccc1)N1N=C(c2ccc(-n3ccc(C(F)(F)F)n3)c(F)c2)CC1c1ccc[nH]1 (configuration not stated)
111

Follow-up entry: `CCNC(=O)Oc1ccc(/C(=C(\C)c2ccccc2)c2ccc(OCCN(CC)CC)cc2)cc1`
63.3

Also `CC(=O)[C@H]1CCC/C=C/[C@@H]2C[C@H](O)C[C@H]2[C@H](O)/C=C/C(=O)O1` ?
-16.6

Another molecule: `O=[N+]([O-])c1ccc(N=Nc2cc(S(=O)(=O)O)c3cccc(S(=O)(=O)O)c3c2O)cc1`
117

* * *

# Tested on: SR leukemia
# procedure_summary: NCI-60 one-dose screen, 48 h (100 = growth as untreated, 0 = no growth, -100 = all killed)
# assay_conditions: 10 µM unless noted
This is part of a sample that, as a whole, favours compounds with a hit. Of some 83,000 tested, about 20% had one in any assay.
endpoint_label: growth (%)
Give just the number in %; leave the unit off.

C#CCNC(=O)c1cccc2c1cc(C)n2-c1nc2c(c(NCc3ccccc3)n1)CCCC2 ... 6.53

Look up growth: NS(=O)(=O)c1ccc(CCN2C(=O)C3C(C2=O)C2(Cl)C(Cl)=C(Cl)C3(Cl)C2(Cl)Cl)cc1 (stereo not given)
98.1

Now give it for `CC(=O)O[C@H]1Cc2c([nH]c3ccccc23)[C@@H](c2ccc(Cl)cc2)N1C(=O)CCNC(C)(C)C` too.
3.79

Then what about the molecule `COc1ccc(-c2[nH][nH]c(=O)c2-c2nc3ccccc3s2)cc1` ?
99.2

* * *

// reported growth per item
# Test system: HCC-2998 colon
# procedure_summary: NCI-60 one-dose screen, 48 h (100 = growth as untreated, 0 = no growth, -100 = all killed)
# assay_conditions: 10 µM unless noted
The panel holds about 83,000 compounds, 20% with a hit somewhere; the sample as a whole holds those more often. Calls of active or inactive are those of the source. The calls were made as follows: active = growth percent below 10; inactive = the rest.

CCOC(=O)c1nc2c3ccccc3ccn2c1C(=O)OCC ... 103% (inactive)
O=C1/C=C/[C@@H](O)[C@@H]2C[C@@H](O)C[C@H]2/C=C/CCC[C@H](CCc2ccc3ncccc3c2)O1 ... 12.9% (inactive)
COc1ccc(-c2[nH][nH]c(=O)c2-c2nc3ccccc3s2)cc1 ... 99.6% (inactive)
CCCCOc1ccc(/C=N/Nc2cc(C)nc3ccc(Br)cc23)cc1 ... -53.9% (active)
N#C/C(=C\c1ccc([N+](=O)[O-])s1)c1nc2cc(Cl)ccc2s1 ... 14.9% (inactive)
Nc1c(C(=O)Nc2ccnc3ccccc23)sc2nc3c(cc12)CN(Cc1ccccc1)CC3 ... 103% (inactive)
NC(=O)Nc1ccc(-n2cnc3cc(-c4ccc(O)cc4)ccc32)cc1 ... 110% (inactive)
CCOC(=O)c1ccc2c(c1)ncn2-c1ccc(NC(=O)Nc2cccc(C)c2)cc1 ... 90.6% (inactive)

// returns reported growth for input `CCc1ccc(-c2cn3ccnc3c(-c3ccc4ncn(Cc5ccccc5)c4c3)n2)cc1`
74.8% (inactive)

One more molecule: `CCOc1ccc(Nc2nc(-c3ccc4c(c3)NC(=O)CO4)cs2)cc1`
86% (inactive)

Param item: COC(=O)C1=C(C(=O)ON)C2C=CC1(C(Cc1ccccc1)Nc1ccccc1)O2 (stereo not given)
93.6% (inactive)

Also Cc1ccc(NC(C(=O)c2ccccc2)c2ccccc2)cc1 (stereo not given) ?
55.1% (inactive)

Could you do the same for `Oc1c(Cl)cc(Cl)c(Cl)c1CNCCNCc1c(O)c(Cl)cc(Cl)c1Cl` , please?
25.2% (inactive)

Let us now turn to COC(=O)C(OC(C)=O)C(OC(C)=O)c1ccc(OC)c(OC)c1 (stereo not given)
108% (inactive)

Same again, this time with `CNC(=O)c1cncc(Cn2nc(C)c(NC(=O)c3ccc(COc4ccc(C(F)(F)F)cc4C)cc3)c2C)c1`
77.8% (inactive)

Continue with CC(Sc1nc2sc3c(c2c(=O)n1-c1ccc(Cl)cc1)CCCC3)C(=O)Nc1nc(-c2ccc(Br)cc2)cs1 (stereo not given)
101% (inactive)

Would you mind doing `CCCCC[n+]1ccc(SCC(=O)N(C)c2ccc(Oc3ccccc3)cc2)c2ccccc21` as well?
100% (inactive)

Lookup `COc1cc(/C(C)=C(\c2ccc(Cl)cc2)c2ccc(OCCN3CCCC3)cc2)ccc1F`
57.4% (inactive)

Input `CNCCn1c(=O)c2cc(OC)c(OC)cc2c2ccc3cc4c(cc3c21)OCO4`
-51.6% (active)

And for `Cc1ccc(S(=O)(=O)NNC(=O)/C(=C\c2ccc(Cl)cc2)c2nc3ccccc3s2)cc1` ?
103% (inactive)
